Collected growth values appear next to each entry.
# Test system: CCRF-CEM leukemia
# PROTOCOL_SUMMARY: NCI-60 one-dose screen, 48 h (100 = growth as untreated, 0 = no growth, -100 = all killed)
# CONDITION_DETAILS: 10 µM unless noted
Compounds without any hit were thinned out: in the full panel of roughly 83,000, 20% have a hit.
Report the figure in % without appending any unit label.

O=C(CSc1nc2ccccc2c(=O)n1-c1ccc(Cl)c(Cl)c1)Nc1ccc(S(=O)(=O)Nc2ccc(Cl)nn2)cc1 = 97

Entry under test: `N#Cc1nc(-c2ccccc2)oc1N1CCC(C2(C(F)(F)F)N=N2)CC1` . Its growth was 102

Entry under test: `Cc1ccc(S(=O)(=O)NCCCNc2nccc(-c3[nH]c(-c4ccccc4)nc3-c3ccc(F)c(O)c3)n2)cc1` . Its growth was 39.7

Entry under test: CCc1cccc2c3c(sc12)C(c1ccc(F)cc1)C(C#N)=C(/N=C/c1ccc(Cl)cc1)O3 (stereo not given) . Its growth was 20.7

Entry under test: `Cc1ccc(C(=O)CSc2nnc(-c3ccc(-c4ccc(Cl)cc4)nc3C)o2)cc1` . Its growth was 108

---

# Tested on: MDA-MB-231 breast
# PROTOCOL_SUMMARY: NCI-60 one-dose screen, 48 h (100 = growth as untreated, 0 = no growth, -100 = all killed)
# CONDITION_DETAILS: 10 µM unless noted
Compounds without any hit were thinned out: in the full panel of roughly 83,000, 20% have a hit. Active and inactive are the calls of the source. How the source made its calls: active means growth percent below 10; inactive means the rest.
Collected growth values appear next to each entry.

Worked cases, growth given:
Cc1ccc(S(=O)(=O)NCCCNc2nccc(-c3[nH]c(-c4ccccc4)nc3-c3ccc(F)c(O)c3)n2)cc1 = 71.1% (inactive)
Nc1cc(C(=O)N/N=C\c2ccc(OC(F)F)c(OC3CCCC3)c2)nn1CC(O)c1ccccc1 (stereo not given) = 97.5% (inactive)
O=C(Nc1ccc(N=Cc2c(O)[nH]c3ccccc23)cc1)Nc1ccc(S(=O)(=O)Nc2ncccn2)cc1 = 107% (inactive)
Cc1ccc(/C(N)=N/C(N)=N/c2nc3ccccc3s2)cc1 = 89.9% (inactive)

# ---- query compound ----
Entry under test: `CCOC(=O)c1ccc(NC2=CC(=O)C(C)=C(C)C2=O)cc1` . Its growth was 75.2% (inactive)

---

# Tested on: UO-31 renal
# PROTOCOL_SUMMARY: NCI-60 one-dose screen, 48 h
# CONDITION_DETAILS: 10 µM unless noted
About 83,000 compounds went through this panel and 20% of them were active in at least one assay; those are over-represented in the sample as a whole. Active and inactive are the calls of the source. Rule for the calls: active = growth percent below 10; inactive = the rest.
Respond only with the outcome that fits, drawn from active, inactive

O=C(/C=C/c1ccc(Cl)c(Cl)c1)Nc1ncc(Cc2ccc(Cl)c(Cl)c2)s1 = inactive
CN1CCN(Cc2ccc(NC(=O)c3cncc(C#Cc4cnc5ccc(OCCCS(C)(=O)=O)nn45)c3)cc2C(F)(F)F)CC1 = active

Now consider the entry below.
Recorded test call requested for `C#CCOc1ccccc1/C=N/Nc1nc(-c2ccc(Cl)cc2)cs1`
inactive

---

# Tested on: KM12 colon
# PROTOCOL_SUMMARY: NCI-60 one-dose screen, 48 h (100 = growth as untreated, 0 = no growth, -100 = all killed)
# CONDITION_DETAILS: 10 µM unless noted
# Protocol: Growth inhibition of the KM12 human tumor cell line is measured as a screen for anti-cancer activity. Cells are grown in 96 well plates and exposed to the test compound for 48 hours. Compounds are tested at a single concentration, which is 10^-5 M for most compounds. The reported endpoint is percent growth (GI% or GIPRCNT), where numbers from 0 - 100% represent growth inhibition, and numbers from -100% - 0 represent cell death. For example, a value of 40 represents 60% growth inhibition. […]
About 83,000 compounds went through this panel and 20% of them were active in at least one assay; those are over-represented in the sample as a whole. The source made the active and inactive calls. Rule for the calls: active = growth percent below 10; inactive = the rest.
METRIC_NAME: growth

Worked cases, growth given:
Cc1ncn(-c2ccc(/C=N/Nc3ccnc4cc(Cl)ccc34)cc2)c1C = -25.8% (active)
CN1CCN(CC#CCn2c3c(c4ccccc42)C[C@]2(C)[C@H]4CC=C5[C@@H]6CC(C)(C)CC[C@]6(C(=O)N6CCOCC6)CC[C@@]5(C)[C@]4(C)CC[C@H]2C3(C)C)CC1 = 66% (inactive)
N/C(=N\C(N)=N\c1nc2ccccc2s1)c1ccc(Cl)cc1 = 68.4% (inactive)
Cc1cc2nc3c4cc(C#N)ccc4n(CCN(C)C)c3nc2cc1C = -3.36% (active)
O=C(N/N=C\c1ccc([N+](=O)[O-])cc1)c1ccc2nc(-c3ccc(Br)cc3)[nH]c2c1 = 11.7% (inactive)
CCc1cc(O)ccc1Nc1cc(-c2ccc(-n3cccn3)cc2)[nH]n1 = 16.6% (inactive)
CN(C)CC(=O)Nc1nc(-c2cccc(NS(=O)(=O)c3cccc4c(N(C)C)cccc34)c2)cs1 = 94.1% (inactive)
O=C(CSc1nc2ccccc2c(=O)n1CCc1ccccc1)Nc1ccc(S(=O)(=O)Nc2ccc(Cl)nn2)cc1 = 98.8% (inactive)

Entry under test: `CC1=C(C)C(=O)C(Nc2cccc(C(F)(F)F)c2)=C(Br)C1=O` . Its growth was 90.7% (inactive)

Entry under test: `Cc1ccc2c(n1)C(=O)C(Cl)=C(Nc1ccc(C(=O)OC(C)(C)C)cc1)C2=O` . Its growth was 105% [9.25 µM] (inactive)

Entry under test: `Cc1cc2nc(C(Cl)Cl)nc(-c3ccc(S(=O)(=O)N(C)C)cc3)n2n1` . Its growth was 39.1% (inactive)

Entry under test: `COC(=O)c1ccc(NC2=C(Cl)C(=O)C(C)=C(C)C2=O)cc1` . Its growth was 6.69% (active)
